molecular target: PD-L1 on CHO cell line highly expressing PD-L1 (PD-1/PD-L1 blockade bioassay kit, promega J1250) (UniProt Q9NZQ7 19-290, limits assumed); assay: cell-based or functional assay
Sequence (Q9NZQ7 19-290 limits assumed): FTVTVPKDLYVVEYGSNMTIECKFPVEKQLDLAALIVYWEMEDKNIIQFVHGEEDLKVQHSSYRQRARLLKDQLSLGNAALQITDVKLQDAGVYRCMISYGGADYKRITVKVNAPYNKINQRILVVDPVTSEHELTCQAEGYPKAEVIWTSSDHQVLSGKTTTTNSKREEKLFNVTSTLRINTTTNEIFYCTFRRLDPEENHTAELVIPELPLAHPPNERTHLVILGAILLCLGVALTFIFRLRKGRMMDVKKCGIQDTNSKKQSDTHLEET
Item-by-item account of EC50 (first run)
Reply with just the number (in nM).

Examples with answers:
PDL1-16E12 (LS/4C9) (antibody, V domains shown, also called PD-L1-16E12-4C9) VH: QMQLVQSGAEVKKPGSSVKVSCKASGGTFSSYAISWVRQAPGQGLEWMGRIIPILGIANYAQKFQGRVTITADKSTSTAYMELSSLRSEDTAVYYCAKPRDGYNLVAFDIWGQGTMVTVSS VL: QLVLTQPPSVSGAPGQRVTISCTGGSSNIGAGYDVHWYQQLPGTAPKLLLFGNTNRPSGVPGRFSGSKSGSSASLAITGLQSDDEADYYCQSYDSSLGGSVIGTGTKVTVL : 0.4
PDL1-16E12 (LS/4A7) (antibody, V domains shown, also called PD-L1-16E12-4A7) VH: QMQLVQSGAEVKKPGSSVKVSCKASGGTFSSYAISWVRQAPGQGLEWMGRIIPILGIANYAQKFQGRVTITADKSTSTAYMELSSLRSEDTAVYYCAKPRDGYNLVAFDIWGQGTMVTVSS VL: QLVLTQPPSVSGAPGQRVTISCTGSSSNIGAGYDVHWYQSLPGTVPKLLISGNSNRPPGVPDRFSGSKSGTSASLAITSLQSEDEADYYCHSYDGSLSEGVFGTGTKVTVL : 0.38
PDL1-16E12 (LS/4H5) (antibody, V domains shown, also called PD-L1-16E12-4H5) VH: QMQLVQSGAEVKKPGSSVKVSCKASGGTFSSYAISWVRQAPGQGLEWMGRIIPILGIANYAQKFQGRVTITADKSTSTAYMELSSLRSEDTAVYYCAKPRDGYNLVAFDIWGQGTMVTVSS VL: QLVLTQPPSVSGAPGQRVTISCTGSSSNIGAGYDVHWYQQLPGTAPKLLIYGNSNRPSGVPDRFSGSKSGTSASLAITGLQAEDEADYYCQSYDSSLSGGVFGGGTKLTVL : 0.43
PDL1-16E12 (LS/4H8) (antibody, V domains shown, also called PD-L1-16E12-4H8) VH: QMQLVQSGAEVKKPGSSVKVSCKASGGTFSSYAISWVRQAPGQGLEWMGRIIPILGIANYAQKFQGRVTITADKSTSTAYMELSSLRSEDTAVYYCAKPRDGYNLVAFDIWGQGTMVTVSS VL: QLVLTQPSSVSGAPGQRVTISCTGSSSNIGAGYDVHWYQQLPGTAPKLLIYGNSNRPSGVPDRFSGSKSGTSASLAITGLQAEDEADYYCQSYDSSLSGSGVFGTGTKVTVL : 0.43
PDL1-16E12 (LS/4F5) (antibody, V domains shown, also called 16E12(4F5); 16E12-4F5) VH: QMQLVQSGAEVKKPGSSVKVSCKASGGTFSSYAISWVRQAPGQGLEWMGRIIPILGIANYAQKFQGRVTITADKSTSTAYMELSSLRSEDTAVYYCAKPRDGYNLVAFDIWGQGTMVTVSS VL: QLVLTQPPSVSGAPGQRVTISCTGSSSNIGAGYDVHWYQQLPGAAPKLLIYGDINRPSGVPDRFSGSKSGISASLAITGLQAEDEADYYCQSYDSSLSGGVFGGGTKLTVL : 0.3

Kindly review the next binder as well.
Fill in: EC50 (first run) of PDL1-16E12 (LS/4A11) (antibody, V domains shown, also called PD-L1-16E12-4A11) VH: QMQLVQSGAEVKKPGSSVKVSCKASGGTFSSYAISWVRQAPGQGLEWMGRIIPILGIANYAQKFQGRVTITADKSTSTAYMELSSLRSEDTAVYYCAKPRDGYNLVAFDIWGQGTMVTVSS VL: QLVLTQPPSVSGAPGQRVIISCTGSSSNIGAGYDVHWYQQVPGTAPKLLIYGNNHRPSGVPDRFSGSKSGTSASLAITGLQAEDETDYYCQSYDNRLSGSLFGGGTKLTVL is ___
0.37
